Data credit: ChEMBL document CHEMBL1201862

Test system: DMS-273
Experiment: NCI tumour cell line growth inhibition, 48 h
Calls of active or inactive are those of the source. Cut-off read from the data, not from the text of the source: active = GI50 up to about 1.1 µM and inactive = higher.
Exercise: for every item that follows, state its recorded GI50.

Please state GI50 for every molecule in the list that follows.
1. COC(=O)[C@@H]1C[C@H](c2ccc(OC)c(OC)c2)OC1=O.COC(=O)[C@H]1C[C@H](c2ccc(OC)c(OC)c2)OC1=O
2. Nc1nc(N)c(CCCCc2ccccc2)c(N)n1
3. CCc1cccc(C(C)C)c1NC(=O)CCl

Response:
1: > 100 µM (inactive); 2: > 100 µM (inactive); 3: > 100 µM (inactive)

====

System: SF-268
Experiment: NCI tumour cell line growth inhibition, 48 h
Calls of active or inactive are those of the source. Cut-off read from the data, not from the text of the source: active = GI50 up to about 1.1 µM and inactive = higher.
Exercise: for every item that follows, state its recorded GI50.

Before answering, review these 3 worked examples.
CCN(CC)C(c1ccc(N(C)C)cc1)C(c1ccc(N(C)C)cc1)N(CC)CC (stereo unspecified)    65 µM (inactive)
COc1ccc(/C(=C/n2ccnc2)C(=O)c2ccc(OC)c(OC)c2)cc1    > 100 µM (inactive)
Cc1ccccc1-n1c(=O)c2ncn(C3CCCO3)c2n(-c2ccccc2C)c1=S (stereo unspecified)    > 100 µM (inactive)

Please state GI50 for every compound in the list that follows.
1. CC1C[C@]2(C)C(=O)Nc3ccccc3[C@@H]2Nc2ccccc21 (stereo partly specified)
2. CC(O)C(NC(=O)c1ccccc1)C(=O)N(Cc1ccccc1)Cc1ccccc1 (stereo unspecified)
3. C/C(=N\O)c1ccc2ccc3ccccc3c2c1
4. CN(C)C(=S)/N=c1\ss/c(=N\S(=O)(=O)c2ccccc2)n1-c1ccccc1
5. CCCOC(=O)c1cc(O)c(O)c(O)c1 [PROPYL GALLATE]
6. OCc1ccn2c1[C@@H](O)CC2
7. N[C@H]1C2C3CC4C5CC(C42)C1(c1ccccc1)C53 (stereo partly specified)

Response:
["23.7 µM (inactive)", "> 100 µM (inactive)", "44.9 µM (inactive)", "38.9 µM (inactive)", "27.7 µM (inactive)", "> 100 µM (inactive)", "> 100 µM (inactive)"]

Prompt: Param readout= GI50; system= SF-268; entry= Cc1cc(N(CCC#N)CCC#N)ccc1/C=C(\NC(=O)/C=C/c1ccccc1)NC(=O)Nc1ccc(Cl)cc1 ; returns value.
Response: 62.2 µM (inactive)
